System: HIF-2α HIS TAG-PASB Domain
Test: HIF-2α Scintillation Proximity Assay (SPA)
Format: binding
Consider the cut-off 0.2 µM. If the recorded IC50 is strictly smaller, the label is class 1; if not, the label is class 0.

**Query** IC50 strictly < 0.2 µM for this compound? O=S(=O)(c1ccc(Oc2cc(F)cc(Cl)c2)c2c1C(O)C(F)(F)C2)C(F)F (stereo not drawn)
**Result** class 1

**Query** Bench note: check whether N#Cc1cc(F)cc(Oc2ccc(S(=O)(=O)C(F)(F)F)c3c2CC(F)(F)[C@H]3O)c1 shows IC50 below 0.2 µM
**Result** class 1

**Query** Determine whether this compound shows IC50 lower than 0.2 µM (ties excluded): O=S(=O)(c1ccc(Oc2cncc(F)c2)c2c1[C@H](O)C(F)(F)C2)C(F)(F)F
**Result** class 1

**Query** Given the entry O[C@@H]1CCc2c(Oc3cc(F)cc(F)c3)ccc(C(F)(F)F)c21 , would its reported IC50 be below 0.2 µM?
**Result** class 1

**Query** For CC(O)c1c(S(=O)(=O)C(F)(F)F)ccc(Oc2cc(F)cc(Cl)c2)c1Br (stereo not drawn) , is the recorded IC50 below the cut-off of 0.2 µM?
**Result** class 0

**Query** Problem: For the compound CS(=N)(=O)c1ccc(Oc2cc(F)cc(F)c2)c2c1[C@H](O)C(F)(F)C2 (stereo partly drawn) , is IC50 under 0.2 µM?
**Result** class 1

**Query** Hi there! Is IC50 for O=S(=O)(c1ccc(Oc2cc(F)cc(F)c2)c2c1C(CO)CC2)C(F)F (stereo not drawn) below 0.2 µM, do you know?
**Result** class 0

**Query** Input O=S(=O)(c1ccc(Oc2cc(F)cc3[nH]ncc23)c2c1C(O)C(F)(F)C2)C(F)(F)F (stereo not drawn) ; condition: IC50 strictly below 0.2 µM. Does it hold?
**Result** class 0

**Query** Item O=S(=O)(c1ccc(Oc2cccc3[nH]ncc23)c2c1C(O)C(F)(F)C2)C(F)(F)F (stereo not drawn) : IC50 beneath 0.2 µM, strictly?
**Result** class 0

**Query** Decide: IC50 of N#Cc1c(Oc2cc(F)cc(Cl)c2)ccc(S(=O)(=O)C(F)(F)F)c1Cl strictly below 0.2 µM?
**Result** class 0

**Query** Bench note: check whether N#Cc1cc(Oc2ccc(S(=O)(=O)C(F)(F)F)c3c2CC(F)(F)[C@H]3O)ccc1F shows IC50 below 0.2 µM
**Result** class 1

**Query** Criterion: IC50 strictly below 0.2 µM. Is it met by C[C@]1(F)Cc2c(Oc3cc(F)cc(C#N)c3)ccc(S(C)(=O)=O)c2[C@@H]1O ?
**Result** class 0

**Query** Dear reviewer, please state whether N#Cc1cc(F)cc(Oc2ccc(S(=N)(=O)CF)c3c2CC(F)(F)[C@H]3O)c1 (single isomer, unassigned) [Example 274] has IC50 strictly beneath 0.2 µM.
**Result** class 1

**Query** Please determine if O=S(=O)(c1ccc(Oc2ccc(Cl)c(Cl)c2)c(Br)c1)C(F)(F)F is below 0.2 µM in terms of IC50.
**Result** class 0

**Query** # check: IC50 < 0.2 µM for N#Cc1cccc(Oc2ccc(S(=O)(=O)C(F)(F)F)cc2Br)c1
**Result** class 0

**Query** Is the reported IC50 for CN=S(=O)(c1ccc(Oc2cc(F)cc(Cl)c2)c(Br)c1)C(F)F (stereo not drawn) strictly below 0.2 µM?
**Result** class 0

**Query** IC50 strictly < 0.2 µM for this compound? O=S(=O)(c1ccc(Oc2ccc(F)c(Cl)c2)c2c1[C@H](O)C(F)(F)C2)C(F)(F)F
**Result** class 1

**Query** Does the reported IC50 of CC(=NO)c1c(S(=O)(=O)C(F)(F)F)ccc(Oc2cc(F)cc(Cl)c2)c1Br stay below 0.2 µM?
**Result** class 0
